tested on: A498 renal; assay: NCI tumour cell line growth inhibition, 48 h
experimental endpoint: TGI

[Q] Looking for the measured TGI of Cc1cc2c(cc1Cl)S/C(=C/C(=O)O)C(Nc1cccc3nsnc13)=NS2(=O)=O , can you help?
[A] > 100 µM

[Q] What do we get for CC1(C)OC2COC3([C@@H]4OC(C)(C)O[C@@H]4CO)OC(C)(C)OC3C2O1 (some centres not stated) ?
[A] > 100 µM

[Q] What do you have for Cc1cccc(/C(Br)=C2/OC(=O)c3ccccc32)c1 ?
[A] > 100 µM

[Q] Query Cc1c2ccncc2c(C)c2c1[nH]c1ccc(O)c(OCC(F)(F)F)c12 next
[A] 37.5 µM

[Q] Would you kindly repeat that for Cc1c(C)c(CC(=O)N2CC2)c(C)c(C)c1CC(=O)N1CC1 ?
[A] 32.1 µM

[Q] Do the same for c1ccc(C2CC(=NC3CCCCC3)Nc3ccccc3N2)cc1 (configuration not stated) please
[A] 93.7 µM

[Q] Now try CC(C)/C(Cl)=N/OC(=O)Nc1ccc(OC(F)(F)F)cc1 .
[A] 32.9 µM

[Q] Param item: O=c1c2ccccc2sc2ccccc12
[A] > 100 µM

[Q] Now consider CCCCCCC(C)CCCCCCCCCCC(=O)O (configuration not stated) .
[A] > 100 µM

[Q] Another: O=C(O)c1ccccc1C(=O)c1ccc2c(c1)Cc1ccccc1-2
[A] > 100 µM

[Q] // same read-out, input: O=C(CC1(O)C(=O)Nc2c(Cl)ccc(Cl)c21)c1ccc(Cl)cc1Cl (configuration not stated)
[A] 42.5 µM

[Q] What about CCOC(=O)NC(Nc1c(F)c(F)c(F)c(F)c1F)(C(F)(F)F)C(F)(F)F ?
[A] > 100 µM

[Q] Another molecule to look at: C[C@H]1OC(=O)[C@@H]2N=NN(Cc3ccccc3)[C@H]12
[A] > 100 µM

[Q] Try this molecule too: COc1ccc(F)c(F)c1C(=O)c1cnc(NC2CCN(S(C)(=O)=O)CC2)nc1N
[A] 2.08 µM

[Q] Note, next up: Cc1cccc(C)c1N1C(=O)C(=O)C(c2nc3ccccc3s2)/C(=N/NC(=O)NN)C1=O (configuration not stated)
[A] > 100 µM

[Q] Also, O=C1c2ccccc2-c2c1c1c(NCCCO)nc3ccccc3c1n2Cc1ccccc1 please.
[A] 48.6 µM

[Q] What about CCOC(=O)c1ccc(Nc2nc3ccc(C(F)(F)F)cc3nc2C(=O)OCC)cc1 ?
[A] > 100 µM

[Q] O=C(O)CN(CC(=O)O)C(C(=O)O)c1ccccc1 (configuration not stated) , same question.
[A] > 100 µM

[Q] Now consider Cc1cccc(C)c1N1C(=O)C(=O)C(c2nc3ccccc3s2)C(=Nc2cccc3c(=O)[nH][nH]c(=O)c23)C1=O (configuration not stated) and answer again.
[A] > 100 µM

[Q] Also need CSc1ccc(N(C)c2nc(C)nc3c2CCC3)cc1 , thanks.
[A] < 0.01 µM

[Q] What do you have for COc1cccc(COc2cc(-n3cnc4ccccc43)sc2C(N)=O)c1 ?
[A] > 25 µM

[Q] Also, COc1ccc(NC(C)c2ccncc2)cc1 (configuration not stated) please.
[A] > 100 µM

====

test system: SNB-75 CNS; assay: NCI tumour cell line growth inhibition, 48 h
experimental endpoint: TGI

[Q] # input compound: CN(C)c1ccc(Cc2cc3c(O)ccc(O)c3cc(Cc3ccc(N(C)C)cc3)c2=O)cc1 ; wanted: its TGI
[A] > 92.2 µM

[Q] Here is the next compound: O=[N+]([O-])/C(Cl)=C(\NCCN/C(C(Cl)=C(Cl)Cl)=C(/Cl)[N+](=O)[O-])C(Cl)=C(Cl)Cl
[A] > 100 µM

[Q] Also check Cn1c(=O)nc2n(-c3ccc(Cl)c(C(F)(F)F)c3)c3ccccc3nc-2c1=O
[A] > 100 µM

[Q] For CCOC(=O)c1ccc(Nc2nc3ccc(C(F)(F)F)cc3nc2C(=O)OCC)cc1 then?
[A] > 100 µM

[Q] Quick one: CN1CCN(C2=C(Cl)C3(OCCS3)C(F)(F)C2(F)F)CC1 (centres undefined)
[A] > 100 µM

[Q] Another compound: O=C(O)CCCCCCCCC(=O)O
[A] > 79.3 µM

[Q] Repeat for the following compound: O=C1CNS(=O)(=O)N1
[A] > 100 µM

[Q] Same for COC(=O)C1C(=O)N(CCc2c[nH]c3ccccc23)C[C@@H]2CCC(=O)C[C@H]12 (some centres undefined)
[A] > 100 µM

[Q] Next record, please: O=C(CC(=O)Nc1ccccc1)NNC(c1cc(N=Nc2ccc(Br)cc2)ccc1O)P(O)O (centres undefined)
[A] > 10 µM

Recorded values, source PubChem BioAssay (NCI).
